For each of the molecules below, state its displacement.
# TESTED TARGET: Bcl-2-like protein 10 (Homo sapiens)
# ASSAY NAME: TR3 peptide-Bcl-B binding displacers, biochemical primary FP assay, phenotype converters (AID 1240);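 further: 0% = Bcl-B with tracer peptide and DMSO and 100% = tracer peptide lacking Bcl-B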
# MEASUREMENT CONTEXT: GST-Bcl-B / FITC-TR3 peptide fluorescence polarization; stronger effect = higher value; compound at 3.75 mg/L
The campaign covered roughly 50,000 compounds. About 800 (1.6%) showed an effect of 50% or more. The sample holds strong results, similar compounds and a random draw of the others, so the mix is not that of the screen.
One number for each entry, in %.

Take a look at these entries with their results.
MOLECULE: O=C(Nc1ccc(O)c(-c2nc3ccccc3o2)c1)c1cc2ccccc2o1
UNIT: %
displacement: -10.8
//
MOLECULE: Cc1ccc(N2C(=O)c3ccc(C(=O)O)cc3C2=O)nc1
UNIT: %
displacement: -10.6
//
MOLECULE: C/C(=N\N1CCN(c2ccccc2)CC1)c1ccc(F)cc1
UNIT: %
displacement: -8.7
//
MOLECULE: CCOC(=O)/C(C#N)=C\c1c(C)c(C)c(/C=C(/C#N)C(=O)OCC)c(C)c1C
UNIT: %
displacement: 7.7
//
MOLECULE: COc1ccc(/C=C2\SC(N3CCCCCC3)=NC2=O)cc1OC
UNIT: %
displacement: -1.9

# batch: return displacement for each of the 4 molecules below
1. CC1=C(C(=O)OC(C)C)C(c2ccccc2Cl)C2=C(CCCC2=O)N1 (stereo unspecified)
2. O=c1[nH]c(=O)n(Cc2ccc(F)cc2)c(O)c1/C=C1\C=Nc2ccccc21
3. Cc1cc(C)cc(-n2c(O)c(/C=C3\C=Nc4ccccc43)c(=O)[nH]c2=O)c1
4. O=C1C2=C(Nc3ccccc3SC2c2ccc3c(c2)OCO3)c2ccccc21 (stereo unspecified)

0
51.3
71.2
-16.3

# batch: return displacement for each of the 2 molecules below
1. C=CCn1c(O)c(/C=C2\C=Nc3ccccc32)c(=O)[nH]c1=S
2. COc1ccc(C2=N/C(=C\N(C)C)C(=O)O2)cc1

1: -2.9; 2: -9
